# MEASUREMENT TARGET: α3G181Cβ2 nAChR (Rattus norvegicus, UniProt P04757+P12390, G208C)
# Sequence (P04757 26-499 G208C): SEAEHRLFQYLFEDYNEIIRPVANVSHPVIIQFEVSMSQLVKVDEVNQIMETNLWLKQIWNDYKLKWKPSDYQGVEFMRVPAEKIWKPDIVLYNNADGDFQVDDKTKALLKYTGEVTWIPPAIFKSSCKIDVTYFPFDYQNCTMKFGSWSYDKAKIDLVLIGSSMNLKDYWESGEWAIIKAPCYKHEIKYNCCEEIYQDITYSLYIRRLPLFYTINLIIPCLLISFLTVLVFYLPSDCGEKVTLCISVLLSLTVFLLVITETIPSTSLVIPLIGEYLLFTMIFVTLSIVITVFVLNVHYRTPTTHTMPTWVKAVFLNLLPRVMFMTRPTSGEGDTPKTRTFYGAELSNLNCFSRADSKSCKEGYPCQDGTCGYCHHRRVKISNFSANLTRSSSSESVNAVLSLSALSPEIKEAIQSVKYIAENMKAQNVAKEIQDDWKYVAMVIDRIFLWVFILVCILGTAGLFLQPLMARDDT
# Sequence (P12390 25-500): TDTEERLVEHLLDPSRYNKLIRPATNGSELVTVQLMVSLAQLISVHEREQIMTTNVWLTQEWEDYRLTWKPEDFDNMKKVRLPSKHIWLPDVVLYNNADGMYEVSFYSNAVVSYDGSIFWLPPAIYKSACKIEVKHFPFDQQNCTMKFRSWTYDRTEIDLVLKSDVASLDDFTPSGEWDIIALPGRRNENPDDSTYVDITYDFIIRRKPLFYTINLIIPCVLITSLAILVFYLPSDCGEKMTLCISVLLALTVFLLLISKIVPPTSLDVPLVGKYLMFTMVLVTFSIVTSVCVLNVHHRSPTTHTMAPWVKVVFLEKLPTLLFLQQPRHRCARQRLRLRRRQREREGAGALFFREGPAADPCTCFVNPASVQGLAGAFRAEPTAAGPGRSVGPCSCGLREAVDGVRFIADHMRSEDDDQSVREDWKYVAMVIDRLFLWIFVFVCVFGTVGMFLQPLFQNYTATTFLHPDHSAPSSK
# MEASUREMENT DESCRIPTION: Two-electrode voltage-clamp concentration-response in Xenopus oocytes
EXPERIMENTAL ENDPOINT: pEC50
Note: pEC50 values are expressed as the negative base-10 logarithm of concentration in M.

Problem: // returns reported pEC50 for input Cc1ccsc1C=CC1=NCCCN1C.O=C(O)C(O)C(O)C(=O)O
Result: 4.39
